Biological target: Carbonic anhydrase 2 (Homo sapiens) (UniProt P00918)
Assay: CAII small-molecule binders, profiling panel, biochemical, small-molecule microarray, Alexa647-labelled CAII (AID 1122)
Conditions: CAII-A647 binding fluorescence, higher = more signal
Please go through the items and note down their composite z-score.
Answer field: number only, no words.

The recorded composite z-score for [N-]=[N+]=Nc1ccccc1C[C@@]1(C(=O)NCC(O)CO)N=C(c2ccc(OCCCO)cc2)O[C@@H]1c1ccccc1N=[N+]=[N-] (some centres undefined) is 0.78

COC(=O)c1c2oc(c1C(=O)OC)C(=O)N[C@H](Cc1ccccc1)Cn1cc(nn1)C1(CCCCC1)NC(=O)N[C@H](CO)CC2 has a reported composite z-score of 0.765

Record C=C(C(=O)CC[C@@H](OC(=O)c1cccnc1)c1cccc(OCCO)c1)C(C)C . Reported composite z-score: 0.14

Reported composite z-score of Cc1ccc(S(=O)(=O)N2[C@@H](c3ccccc3)C(C(=O)O)=CC[C@H]2c2ccc(F)cc2)cc1 : 0.893

---

Assay: small-molecule microarray binders of probe aShh, primary screen, biochemical, biotinylated probe, 635/667 nm fluorescence (AID 1114);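 note: probe is biotin-labelled aShh protein from a stem cell growth factor screen; measures binding of labelled protein to compounds printed on the slide; score merges feature fluorescence at 667 nm with signal-to-noise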
Settings: higher = more signal
Assign composite z-score to each entry below.
Answer with the value's number alone.

Reported composite z-score ( COCCCNC(=O)[C@]1(Cc2ccccc2CN=[N+]=[N-])N=C(c2ccc(OCCCO)cc2)O[C@@H]1c1ccccc1N=[N+]=[N-] ) = 1.16

Lab note: [N-]=[N+]=Nc1ccccc1C[C@@]1(C(=O)NCC(O)CO)N=C(c2ccc(OCCCO)cc2)O[C@@H]1c1ccccc1N=[N+]=[N-] (stereo not given in full) gave composite z-score of 0.348

Field composite z-score (entry C=CCC(OC(C)=O)[C@@H]1[C@@H](N(Cc2ccc(-c3ccccc3)cc2)C(=O)Cc2ccc(OC)cc2)c2cc(OCCCO)ccc2N1C(=O)c1ccc2ccccc2c1 (stereo not given in full) ) reads -0.153

composite z-score in this record for CN1C(=O)C2C=CC(C(O)c3cccs3)N(N(c3ccccc3)c3ccccc3)C2C1=O (stereo not given) : 0.131

The molecule listed as COc1cccc(C)c1NC(=O)O[C@H]1[C@H](OC(=O)Nc2ccccc2-c2ccccc2)[C@@H](OC(=O)Nc2ccccc2-c2ccccc2)[C@@H](OC)O[C@@H]1CO has a reported composite z-score of -0.0211

# molecule O=C1O[C@H](c2ccccc2)[C@H](c2ccccc2)N2[C@H]1[C@@H](C(=O)O)[C@]1(C(=O)Nc3ccc(C#CC4(O)CCCCCC4)cc31)[C@H]2c1ccccc1OCCO ; its composite z-score = 0.459

Entry C=C(COC)C(=O)CC[C@H](OC(C)=O)c1ccc(CO)o1 ; composite z-score = -0.0709

Reported composite z-score of CC(C)N1CC=CC23O[C@@H]4/C=C\CCCOC(=O)C4[C@H]2C(=O)N(C(C)CO)[C@@H]3C1=O (stereo not given in full) : -0.167

O=C1O[C@H](c2ccccc2)[C@H](c2ccccc2)N2[C@H]1[C@@H](C(=O)O)[C@]1(C(=O)Nc3ccccc31)[C@H]2c1ccc(OCCO)cc1 yielded composite z-score of -0.187

For reference, reported composite z-score for O=C(c1ccccc1)N1Cc2ccccc2C[C@@]2(N=C(c3ccc(OCCCO)cc3)O[C@H]2c2ccccc2)C1=O stands at 0.0483

// composite z-score lookup, molecule = CCCC[C@@H](O)C1=C(C)Cn2c(=O)n(-c3ccccc3)c(=O)n2[C@H]1CO , result: -0.221

Briefly, composite z-score measured for COC(=O)[C@@]1(Cc2ccc(F)cc2)[C@@H]2C(=CC(=O)[C@H]2CC(=O)C(=O)N2CCCC2)CN1C(=O)c1ccccc1 : 0.761

Lab book: composite z-score of O=C1N(Cc2ccccc2)Cc2ccccc2C[C@@]12COC(c1ccc(OCCCO)cc1)=N2 noted as 0.0287

The recorded composite z-score for entry CC(C)(C)OC(=O)CC[C@@]1(C(N)=O)N=C(c2ccc(OCCCO)cc2)O[C@@H]1c1ccccc1CN=[N+]=[N-] equals 0.553

Sure, the documented composite z-score for C=C(COC)/C(=C/C[C@@H](OC(C)=O)c1cccc(OCCO)c1)c1cnc2ccccc2c1 is 0.199
